Value source: ChEMBL document CHEMBL1132303

# Test system: MIA PaCa-2
# experiment.summary: The compound was tested for growth inhibitory activity against MiaPaCa2 tumor cell lines
# Type: functional, cell-based
# particulars: Homo sapiens
pIC50: −log10 of the molar value.
readout.label: pIC50

Example results:
O=C1O/C(=C\Cn2cc(F)c(=O)[nH]c2=O)C(OCc2ccccc2)=C1OCc1ccccc1; 4.40
O=C1O/C(=C\Cn2cc(I)c(=O)[nH]c2=O)C(OCc2ccccc2)=C1OCc1ccccc1; 4.10

P = O=C1O/C(=C\Cn2cc(Cl)c(=O)[nH]c2=O)C(OCc2ccccc2)=C1OCc1ccccc1
Q = O=C1O/C(=C\Cn2cc(Br)c(=O)[nH]c2=O)C(OCc2ccccc2)=C1OCc1ccccc1
Exercise: Thinking about recorded pIC50 values, which is higher, P or Q ? # respond with the chosen item's label
Solution: P
(P: 4.40, Q: 4.10)
